Tested on: MS2 coat protein
Experiment: apparent KD of MS2 coat protein; designed switch direction (-1 OFF switch, 1 ON switch): -1; higher = weaker reporter binding
Conditions: input ligand: none
Catalogue of apparent KD of MS2 coat protein values
experimental.readout: apparent KD of MS2 coat protein (nM)

>>> observed("CCUUGUGUUGAGGAUAUGCGCCGGCUCGCUGGCGCAGAAGGCGGCACAUGAGGAUCACCCAUGUCAGUUCGCGA [salish99_ex6_r004_012] (Eterna round: R97, puzzle: Exclusion 6)")
29.2
>>> observed("CAUUAUUAUCGAGGAUAUCCUAUUGUAAUACUGGGAGAAGGCGGACUCAACAUGAGGAUCACCCAUGUAAGACGGGUACUAGAU [Ex NG1 #22] (Eterna round: R96, puzzle: Exclusion NG 1)")
163
>>> observed("GUAAUUGAUGUCAGGAUAUCAGGGCCACAAUGCUAUGAGAAGGGACAUGAGGAUCACCCAUGUAAAAGUUCAUG [BmEX4 B.16] (Eterna round: R97, puzzle: Brourd's mod of Exclusion 4)")
69.8
>>> observed("UGGUGUUACGUAGGAUAUUGUCAACAGGCAGUAGGAUAUGCGAAAGCAGAAGGACCGCCAACAGGCGAGAAGGACGGGUUACCU [pwkr exNG2 2xF7 2xFMN.8] (Eterna round: R96, puzzle: Exclusion NG 2)")
211
>>> observed("UCCUCACCCAAGGAUAUCUGAGUCGGAACUAGCAGAGAAGGUGGCACAUGAGGAUCACCCAUGUAGACCAAUGC [Eternabot (L2) Solution 9] (Eterna round: R97, puzzle: Exclusion 6)")
7.73
>>> observed("GUUUUGGGAGGAUAUAUGUGGAUAAUUUUUAUAUGAAAUUUACAUGAGGAUCACCCAUGUAGAAGGUCUAGAGC [-18.5, -15.1 kcal, 31% A] (Eterna round: R97, puzzle: Exclusion 2)")
261
>>> observed("UGCAAGCUUUUAAGAUCCUACAUGAGGAUCACCCAUGUGGCUCGUCUUAUACGUACUGUGACGAAAGUCACGGUACG [JL TOV1 3.98] (Eterna round: R97, puzzle: Sensor, turn-off variant 1)")
22.8
>>> observed("UAUUAACAAGUAAGAUCCAACAUGAGGAUCACCCAUGUGCUCGUCUUAUAAGGUACUGUGACGAAAGUCACGGUACC [Eli 87 v1] (Eterna round: R97, puzzle: Sensor, turn-off variant 1)")
21.8
>>> observed("CCAAGCUUAUUCAUUAACCACAUGAGGAUCACCCAUGUAUAGGCAAUUAUGACUGGGCUCUGUGGUGCUCGUCUUCU [mod-malcom] (Eterna round: R97, puzzle: Sensor, turn-off variant 1)")
60.3

---

System: MS2 coat protein
Test: apparent KD of MS2 coat protein; designed switch direction (-1 OFF switch, 1 ON switch): 1; higher = weaker reporter binding
Settings: input ligand: none
Decide using apparent KD of MS2 coat protein: a value greater than or equal to 70 nM is condition met, a smaller one is condition not met.

>>> class_name("GAGAGAUGGCGAGGAUAUUCGGUGAUAAUGAUGGAAGAAGGCGCUGACAUGAGGAUCACCCAUGUGGGAAUAAUCCAGAGAGAG [Parity 16 - Jieux - Same State NG 1] (Eterna round: R96, puzzle: Same State NG 1)")
"condition met"
>>> class_name("GUAGCAUACCGAGGAUAUUCAUAUUAAAUACAUGAGGAUCACCCAUGUAAGGCCAAAAGGCCUUGGGAGAAGGCGGAAUGCUAC [Xeonanis - 20 Mod3] (Eterna round: R96, puzzle: Same State NG 2)")
"condition not met"
>>> class_name("GCCGUAUAAACAUGAGGAUCACCCAUGUGCGCGAGAGCGGAUGAGGAUAUCGAUGGGUUUCCCGUCGAGAAGGCGUGGGUCGGC [JL SSNG3 3.97] (Eterna round: R96, puzzle: Same State NG 3)")
"condition not met"
>>> class_name("AAAGACAUGGUGCAGGAUAUAUUAAUAGUCACAUGAGGAUCACCCAUGUUCAGAUAUCUGAACGAGUAGAAGGGCGAUGAAAAAA [SameState2 Malc#5] (Eterna round: R96, puzzle: Same State 2)")
"condition met"
>>> class_name("AGAAAACAUGAGGAUCACCCAUGUAGAAAUAUGGGAGGAUAUACAAAGACGAAAGUCAAGGUAGAAGGCCUAAAGA [Mat - Same State 1 - Meechl mod - D124] (Eterna round: R96, puzzle: Same State 1)")
"condition met"
>>> class_name("ACAUGAGAGAUAGGAUAUCGUGUACCUACAUGUGACAUGAGGAUCACCCAUGUGGUAAGUAUGAGCGAGAAGGAUCCGAUAUGU [salish99_SSNG2_r04_1001] (Eterna round: R96, puzzle: Same State NG 2)")
"condition not met"
>>> class_name("CGCCAACGCAUAGGAUAUGCUUGUGUGGAUCGGGCAGAAGGGUGGUUGGAAACAUGAGGAUCACCCAUGUAAAAGUAAGAAAAU [Rierinqu] (Eterna round: R96, puzzle: Same State NG 1)")
"condition met"
>>> class_name("GAGUAGUUGGGAGGAUAUCCAUUGUUAUAGAAUGGAGAAGGUUUUAACAUGAGGAUCACCCAUGUAGGACUAUUCCUGUGUAUC [Parity 72 - Jieux - Same State NG 1] (Eterna round: R96, puzzle: Same State NG 1)")
"condition not met"
>>> class_name("GGAUGACGGACAGGAUAUUGGUGCUAAUGGUGUCAAGAAGGGUCUUCGAUAUAUACGACCAGUUACAUGAGGAUCACCCAUGUU [JR_SSNG1_Sub034] (Eterna round: R96, puzzle: Same State NG 1)")
"condition not met"
>>> class_name("GCCGGCUGGUGAGGAUAUGGCACCUUAUUGGUGCCAGAAGGCAUGUCAAUUGACAUGAGGAUCACCCAUGUAUUAUGGUUGGCG [salish99_SSNG1_r04_606] (Eterna round: R96, puzzle: Same State NG 1)")
"condition met"
>>> class_name("AUUGCUUACGCAGGAUAUGAUGUGGAAACUGCGUCAGAAGGGUGAACAGAAUCGUUGCAAGAAGACAUGAGGAUCACCCAUGUC [SameState NG1 #97] (Eterna round: R96, puzzle: Same State NG 1)")
"condition not met"
>>> class_name("GAGCUCGUGUGAGGAUAUGCCGCCGUUUCGGCUGCAGAAGGUGCUACGUUACAUGAGGAUCACCCAUGUCUCUGUUGUUUCGUC [salish99_SSNG1_r04_961] (Eterna round: R96, puzzle: Same State NG 1)")
"condition not met"
>>> class_name("AGCUUUUAAUCAGGAUAUGGUCACAUGAGGAUCACCCAUGUAACGAUGAUAUAAUGUGGUCAAGACUAGAAGGGAUUGCUAACA [SameState NG2 #67] (Eterna round: R96, puzzle: Same State NG 2)")
"condition met"
>>> class_name("GCCGGCUGGUGAGGAUAUGGCACCUUAUUGGUGCCAGAAGGCAUGUCAAUUGACAUGAGGAUCACCCAUGUAUUGUCGUUGGCG [salish99_SSNG1_r04_608] (Eterna round: R96, puzzle: Same State NG 1)")
"condition met"
>>> class_name("UGGCUGGUGCUAGGAUAUACAUGAGGAAUCCUCGUAGAAGGAUCACGACAUGAGGAUCACCCAUGUAGCCGUCCGUAGACGGCU [salish99_SSNG1_r04_006] (Eterna round: R96, puzzle: Same State NG 1)")
"condition met"
>>> class_name("AAUUAAGAUCGAGGAUAUCACGUCGUUUAGACGUGAGAAGGCGAUCAUAACAUGAGGAUCACCCAUGUAUUACAUGAAUUAAUU [SSNG1/4-B3] (Eterna round: R96, puzzle: Same State NG 1)")
"condition not met"
>>> class_name("GCUGCAAUUAACGCCUACAUGAGGAUCACCCAUGUAUGUAGGCAGGAUAUCGUUUGCUUUGCAAACGAGAAGGGCCGUAGUAGC [JL SSNG3 1.12] (Eterna round: R96, puzzle: Same State NG 3)")
"condition not met"
